# method_description: CHI Log D procedure
# Format: physicochemical
# test_settings: pH 7.4, CHI Log D
Examples of molecules with documented chromatographic logD follow.
Form rule: numeric answer, no unit written next to it.

Before answering, review these 5 worked examples.
{"molecule": "CC(=O)N1CCC[C@]12CC=CCCCC1(CCCC=CCCCOC(=O)N3CC[C@@](C(=O)N[C@@H](Cc4ccsc4)C(=O)N[C@@H](Cc4csc5ccccc45)C(=O)N[C@@H](CCC(N)=O)C(N)=O)(C3)NC(=O)[C@H](CC(N)=O)NC(=O)[C@H](Cc3ccccc3)NC(=O)[C@H](C)NC(=O)[C@H](C)NC(=O)[C@H]([C@@H](C)O)NC(=O)[C@H](CC(=O)O)NC1=O)NC(=O)[C@H](CC(C)(C)C)NC(=O)[C@H](CC(=O)O)NC2=O (stereo partly drawn)", "chromatographic logD": 2.31}
{"molecule": "CC(=O)N1CCC[C@]12CC=CCCCC1(CCCC=CCCCOC(=O)N3CC[C@@](C(=O)N[C@@H](Cc4ccccc4)C(=O)N[C@@H](Cc4csc5ccccc45)C(=O)N[C@@H](Cc4c[nH]cn4)C(N)=O)(C3)NC(=O)[C@H](CC(N)=O)NC(=O)[C@H](Cc3ccccc3)NC(=O)[C@H](C)NC(=O)[C@H](C)NC(=O)[C@H](CC(=O)O)NC(=O)[C@H](CC(=O)O)NC1=O)NC(=O)[C@H](CC(C)(C)C)NC(=O)[C@H](CC(=O)O)NC2=O (stereo partly drawn)", "chromatographic logD": 2.15}
{"molecule": "CC(=O)N1CCC[C@]12CC=CCCCC1(CCCC=CCCCOC(=O)N3CC[C@@](C(=O)N[C@@H](Cc4ccccc4Cl)C(=O)N[C@@H](Cc4csc5ccccc45)C(=O)N[C@@H](CCC(N)=O)C(N)=O)(C3)NC(=O)[C@H](Cc3ccccc3)NC(=O)[C@H](Cc3ccccc3)NC(=O)[C@H](C)NC(=O)[C@H](C)NC(=O)[C@H](CN(CC(=O)O)CC(F)(F)F)NC(=O)[C@H](CC(=O)O)NC1=O)NC(=O)[C@H](CC(C)(C)C)NC(=O)[C@H](CC(=O)O)NC2=O (stereo partly drawn)", "chromatographic logD": 2.46}
{"molecule": "CC(=O)N1CCC[C@]12CC=CCCCC1(CCCC=CCCCCCC[C@@](C)(C(=O)N[C@@H](Cc3ccccc3)C(=O)N[C@@H](Cc3c[nH]c4ccccc34)C(=O)N[C@@H](CCC(N)=O)C(N)=O)NC(=O)[C@H](C(C)C)NC(=O)[C@H](Cc3ccccc3)NC(=O)[C@H](C)NC(=O)[C@H](C)NC(=O)[C@H](Cc3c[nH]c4ccccc34)NC(=O)[C@H](CC(=O)O)NC1=O)NC(=O)[C@H](C)NC(=O)[C@H](CC(=O)O)NC2=O (stereo partly drawn)", "chromatographic logD": 2.82}
{"molecule": "CC(=O)N1CCC[C@]12CC=CCCCC1(CCCC=CCCCCCC[C@@](C)(C(=O)N[C@@H](Cc3ccccc3)C(=O)N[C@@H](Cc3csc4ccccc34)C(=O)N[C@@H](CCC(N)=O)C(N)=O)NC(=O)[C@H](CC(N)=O)NC(=O)[C@H](Cc3ccco3)NC(=O)[C@H](C)NC(=O)[C@H](C)NC(=O)[C@H](CCC(=O)O)NC(=O)[C@H](CC(=O)O)NC1=O)NC(=O)[C@H](C)NC(=O)[C@H](CC(=O)O)NC2=O (stereo partly drawn)", "chromatographic logD": 1.99}

Query CC(=O)N1CCC[C@]12CC=CCCCC1(CCCC=CCCCOC(=O)N3CC[C@@](C(=O)N[C@@H](Cc4ccccc4)C(=O)N[C@@H](Cc4csc5ccccc45)C(=O)N[C@@H](CCC(N)=O)C(N)=O)(C3)NC(=O)[C@H](CC(C)C)NC(=O)[C@H](Cc3ccccc3)NC(=O)[C@H](C)NC(=O)[C@H](C)NC(=O)[C@H](CC(=O)O)NC(=O)[C@H](CC(=O)O)NC1=O)NC(=O)[C@H](CC(C)(C)C)NC(=O)[C@H](CC(=O)O)NC2=O (stereo partly drawn) yields chromatographic logD of 1.39

Query CC(=O)N1CCC[C@]12CC=CCCCC1(CCCC=CCCCOC(=O)N3CC[C@@](C(=O)N[C@@H](Cc4ccsc4)C(=O)N[C@@H](Cc4csc5ccccc45)C(=O)N[C@@H](CCC(N)=O)C(=O)N[C@@H](CCCCNC(=O)CN4CCOCC4)C(N)=O)(C3)NC(=O)[C@H](CC(N)=O)NC(=O)[C@H](Cc3ccccc3)NC(=O)[C@H](C)NC(=O)[C@H](C)NC(=O)[C@H](CC(=O)O)NC(=O)[C@H](CC(=O)O)NC1=O)NC(=O)[C@H](CC(C)(C)C)NC(=O)[C@H](CC(=O)O)NC2=O (stereo partly drawn) yields chromatographic logD of 1.92

Query CC[C@H](C)[C@@H]1NC(=O)[C@H](CC(=O)O)NC(=O)[C@]2(CC=CCCCC3(CCCC=CCCCCCC[C@@](C)(C(=O)N[C@@H](Cc4ccccc4)C(=O)N[C@@H](Cc4csc5ccccc45)C(=O)N[C@@H](Cc4ccccc4)C(N)=O)NC(=O)[C@H](CCC(N)=O)NC(=O)[C@H](Cc4ccccc4)NC(=O)[C@H](C)NC(=O)[C@H](C)NC(=O)[C@H](CCC(=O)O)NC(=O)[C@H](CC(=O)O)NC3=O)NC1=O)CCCN2C(C)=O (stereo partly drawn) yields chromatographic logD of 2.73

Query CCCCCCCC(=O)NCCCC[C@@H]1NC(=O)[C@H](C)NC(=O)[C@H](CC(=O)O)NC(=O)[C@H](CC(=O)O)NC(=O)C2(CCCC=CCCCOC(=O)N3CC[C@@](C(=O)N[C@@H](Cc4ccsc4)C(=O)N[C@@H](Cc4csc5ccccc45)C(=O)N[C@@H](CCC(N)=O)C(N)=O)(C3)NC(=O)[C@H](CC(N)=O)NC(=O)[C@H](Cc3ccccc3)NC1=O)CCCC=CC[C@]1(CCCN1C(C)=O)C(=O)N[C@@H](CC(=O)O)C(=O)N[C@@H](CC(C)(C)C)C(=O)N2 (stereo partly drawn) yields chromatographic logD of 2.2

---

Examples of compounds with documented Solubility follow.
# method_description: Solubility in PBS
# Type: physicochemical
# test_settings: Solubility (uM)
Number plus unit, in that order.

Before answering, review these 2 worked examples.
{"compound": "CC(=O)N1CCC[C@]12CC=CCCCC1(CCCC=CCCCOC(=O)N3CC[C@@](C(=O)N[C@@H](Cc4cscn4)C(=O)N[C@@H](Cc4csc5ccccc45)C(=O)N[C@@H](CCC(N)=O)C(N)=O)(C3)NC(=O)[C@H](CC(N)=O)NC(=O)[C@H](Cc3ccccc3)NC(=O)[C@H](C)NC(=O)[C@H](C)NC(=O)[C@H](CC(=O)O)NC(=O)[C@H](CC(=O)O)NC1=O)NC(=O)[C@H](CC(C)(C)C)NC(=O)[C@H](CC(=O)O)NC2=O (stereo partly drawn)", "Solubility": "43 µM"}
{"compound": "CC(=O)N1CCC[C@]12CC=CCCCC1(CCCC=CCCCOC(=O)N3CC[C@@](C(=O)N[C@@H](Cc4ccsc4)C(=O)N[C@@H](Cc4csc5ccccc45)C(=O)N[C@@H](CCC(N)=O)C(N)=O)(C3)NC(=O)[C@H](CC(N)=O)NC(=O)[C@H](Cc3ccccc3)NC(=O)[C@H](C)NC(=O)[C@H](C)NC(=O)[C@H](CC(C)C)NC(=O)[C@H](CC(=O)O)NC1=O)NC(=O)[C@H](CC(C)(C)C)NC(=O)[C@H](CC(=O)O)NC2=O (stereo partly drawn)", "Solubility": "18 µM"}

Now for a further compound.
Query CC(=O)N1CCC[C@]12CC=CCCCC1(CCCC=CCCCOC(=O)N3CC[C@@](C(=O)N[C@@H](Cc4ccsc4)C(=O)N[C@@H](Cc4csc5ccccc45)C(=O)N[C@@H](CCC(N)=O)C(N)=O)(C3)NC(=O)[C@H](CC(N)=O)NC(=O)[C@H](Cc3ccccc3)NC(=O)[C@H](CCCCNC(=O)CCC34CC5CC(CC(C5)C3)C4)NC(=O)[C@H](C)NC(=O)[C@H](CC(=O)O)NC(=O)[C@H](CC(=O)O)NC1=O)NC(=O)[C@H](CC(C)(C)C)NC(=O)[C@H](CC(=O)O)NC2=O (stereo partly drawn) yields Solubility of 40 µM

---

# method_description: CHI Log D procedure
# Format: physicochemical
# test_settings: pH 7.4
assay_metric: CHI Log D

{"compound": "CC(=O)N1CCC[C@]12CC=CCCCC1(CCCC=CCCCOC(=O)N3CC[C@@](C(=O)N[C@@H](Cc4ccsc4)C(=O)N[C@@H](Cc4csc5ccccc45)C(=O)N[C@@H](Cc4c[nH]cn4)C(N)=O)(C3)NC(=O)[C@H](CC(N)=O)NC(=O)[C@H](Cc3ccccc3)NC(=O)[C@H](C)NC(=O)[C@H](C)NC(=O)[C@H](CCC(=O)O)NC(=O)[C@H](CC(=O)O)NC1=O)NC(=O)[C@H](CC(C)(C)C)NC(=O)[C@H](CC(=O)O)NC2=O (some centres unmarked) [I-698]", "CHI Log D": 2.153}

Now for a further compound.
Query CC[C@H](C)[C@H](NC(=O)[C@H](CC(=O)O)NC(=O)[C@H](C)NC(C)=O)C(=O)N[C@]1(C)CCN(C)C(=O)OCC=CCCCCC[C@@](C)(C(=O)N[C@@H](Cc2ccccc2)C(=O)N[C@@H](Cc2c[nH]c3ccccc23)C(=O)N[C@@H](C)C(N)=O)NC(=O)[C@H](C)NC(=O)[C@H](Cc2ccccc2)NC(=O)[C@H](C)NC(=O)[C@H](C)NC(=O)[C@H](CCC(=O)O)NC(=O)[C@H](CC(=O)O)NC1=O [I-154] yields CHI Log D of 1.426
